Test system: BXPC3 human pancreatic cancer cells
Test: CellTiter Glo (CTG) cell viability assay, in vitro cell killing, BXPC3
Type: cell-based
Conditions: BXPC-3, 50 μM, 24 h treatment, 0.5% serum and 0.05% DMSO, relative to untreated control, read-out: % avg live cells @ 50 μM (% Viable Cells Remaining)
Answer each item with its documented viability at 50 µM.
One number for each entry, in %.

Completed entries (count: 5):
[
  {
    "COMPOUND": "CCCCCCC(CCSCc1ccccc1)SCc1ccccc1 (stereo not drawn) [A]",
    "viability at 50 µM [%]": 84
  },
  {
    "COMPOUND": "COCCCCCC(CCSCc1ccccc1)SCc1ccccc1 (stereo not drawn) [B]",
    "viability at 50 µM [%]": 84
  },
  {
    "COMPOUND": "N#CCCCCC(CCSCc1ccccc1)SCc1ccccc1 (stereo not drawn) [C]",
    "viability at 50 µM [%]": 70.9
  },
  {
    "COMPOUND": "O=C(O)CCOCC(CCSCc1ccccc1)SCc1ccccc1 (stereo not drawn) [G]",
    "viability at 50 µM [%]": 99.7
  },
  {
    "COMPOUND": "c1ccc(CSCCC(CCCCc2nn[nH]n2)SCc2ccccc2)cc1 (stereo not drawn) [D]",
    "viability at 50 µM [%]": 0.3
  }
]

Turning now to a further compound:
Which value of viability at 50 µM has been reported for O=S(=O)(O)CCCCC(CCSCc1ccccc1)SCc1ccccc1 (stereo not drawn) [E] in the records? 0
